molecular target: CCR2 (Homo sapiens); test: CCR2 in vitro test: intracellular calcium signal detected by FLIPR; settings: HEK293 cells expressing CCR2, agonist MCP-1 at EC80, calcium signal
Sequence (P41597 whole entry, species assumed): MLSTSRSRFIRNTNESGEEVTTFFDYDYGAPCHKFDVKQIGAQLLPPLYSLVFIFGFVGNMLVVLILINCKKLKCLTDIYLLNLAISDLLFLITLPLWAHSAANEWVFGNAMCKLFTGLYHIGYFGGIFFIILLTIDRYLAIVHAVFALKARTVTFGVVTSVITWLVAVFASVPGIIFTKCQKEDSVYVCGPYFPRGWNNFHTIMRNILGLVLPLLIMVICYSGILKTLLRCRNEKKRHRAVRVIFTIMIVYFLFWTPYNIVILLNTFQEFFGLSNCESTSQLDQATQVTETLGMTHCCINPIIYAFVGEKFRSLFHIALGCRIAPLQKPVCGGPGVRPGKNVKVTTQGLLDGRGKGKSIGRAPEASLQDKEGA
measure.name: log10 of IC50 (log10 of the value in µM)
Please keep in mind that the values are log10 of IC50 expressed in µM.

Lookup: Entry `CCCOCCOc1ccc(-c2ccc(OC)c(/C=C/C(=O)Nc3ccc([S@+]([O-])Cc4c(C)ncn4CC)cc3)c2)cc1` has what log10 of IC50?
Found: -2.19

Lookup: Entry `CCCCOCCOc1ccc(-c2ccc(OC)c(/C=C/C(=O)Nc3ccc([S@+]([O-])Cc4c(C)ncn4CC)cc3)c2)cc1` has what log10 of IC50?
Found: -2.25

Lookup: Entry `CCCCOCCOc1ccc(-c2ccc(F)c(/C(C)=C/C(=O)Nc3ccc([S@@+]([O-])Cc4cncn4CCC)cc3)c2)cc1` has what log10 of IC50?
Found: -0.59

Lookup: Entry `CCCCOCCOc1ccc(-c2cc(F)c(OC)c(/C=C/C(=O)Nc3ccc([S@+]([O-])Cc4c(C)ncn4CC)cc3)c2)cc1` has what log10 of IC50?
Found: -2.46

Lookup: Entry `CCCCOCCOc1ccc(-c2ccc(OCC(C)C)c(/C=C/C(=O)Nc3ccc([S@@+]([O-])Cc4cncn4CCC)cc3)c2)cc1` has what log10 of IC50?
Found: -1.52

Lookup: Entry `CCCCOCCOc1ccc(-c2cccc(/C=C/C(=O)Nc3ccc([S@@+]([O-])Cc4nncn4CCC)cc3)c2)cc1` has what log10 of IC50?
Found: -0.67

Lookup: Entry `CCCOCCOc1ccc(-c2ccc(OC(F)F)c(/C=C/C(=O)Nc3ccc([S@+]([O-])Cc4c(C)ncn4CCC)cc3)c2)cc1` has what log10 of IC50?
Found: -1.60

Lookup: Entry `CCCOc1ccc(-c2ccc(OC(F)F)c(/C=C/C(=O)Nc3ccc([S@+]([O-])Cc4c(C)ncn4CC)cc3)c2)cc1` has what log10 of IC50?
Found: -2.03

Lookup: Entry `CCCCOCCOc1ccc(-c2ccc(C)c(/C=C/C(=O)Nc3ccc([S@@+]([O-])Cc4cncn4CCC)cc3)c2)cc1` has what log10 of IC50?
Found: -1.21

Lookup: Entry CCCCOCCOc1ccc(-c2cccc(/C=C/C(=O)Nc3ccc([S+]([O-])Cc4cncn4CC)cc3)c2)cc1 (centres unmarked) has what log10 of IC50?
Found: -2.03

Lookup: Entry CCCCOc1ccc(-c2ccc(Cl)c(/C=C/C(=O)Nc3ccc([S+]([O-])Cc4cncn4CC4CC4)cc3)c2)cc1 (centres unmarked) has what log10 of IC50?
Found: -1.19

Lookup: Entry `CCCCOCCOc1ccc(-c2ccc(O)c(/C=C/C(=O)Nc3ccc([S@@+]([O-])Cc4cncn4CCC)cc3)c2)cc1` has what log10 of IC50?
Found: -1.88

Lookup: Entry `CCCCOCCOc1ccc(-c2ccc(OCC)c(/C=C/C(=O)Nc3ccc([S@+]([O-])Cc4c(C)ncn4CC)cc3)c2)cc1` has what log10 of IC50?
Found: -2.09

Lookup: Entry `CCCCOCCOc1ccc(-c2ccc(OC(F)F)c(/C=C/C(=O)Nc3ccc([S@@+]([O-])Cc4c(C)ncn4CCC)cc3)c2)cc1` has what log10 of IC50?
Found: -1.27
